Source: ChEMBL document CHEMBL2062522

- Tested on: Streptococcus pyogenes
- test protocol: Antibacterial activity against Streptococcus pyogenes isolate L49 by broth microdilution method
- Type: functional
Could you please report measured MIC for the items listed next?
Report only the number, with the unit µg/mL understood.

The compound identified as CC[C@H]1C[C@@]23OC(=O)C(=C2O)C(=O)[C@]2(CC)[C@@H](C=C[C@@H]4[C@@H](O[C@H]5C[C@@H](O)[C@H](NC(=O)c6[nH]c(Cl)cc6Cl)[C@@H](C)O5)[C@@H](C)CC[C@@H]42)CCCC/C=C/[C@@]3(C)C=C1C(=O)O registered its MIC at 2

The compound identified as CC[C@H]1C[C@@]23OC(=O)C(=C2O)C(=O)[C@]2(CC)[C@@H](C=C[C@@H]4[C@@H](O[C@H]5C[C@@H](O)[C@H](NC(=O)c6[nH]c(Cl)c(Cl)c6Cl)[C@@H](C)O5)[C@@H](C)CC[C@@H]42)CCCC/C=C/[C@@]3(C)C=C1C(=O)O registered its MIC at 8

The compound identified as CC[C@H]1C[C@@]23OC(=O)C(=C2O)C(=O)[C@]2(CC)[C@@H](C=C[C@@H]4[C@@H](O[C@H]5C[C@@H](O)[C@H](NC(=O)c6[nH]ccc6Br)[C@@H](C)O5)[C@@H](C)CC[C@@H]42)CCCC/C=C/[C@@]3(C)C=C1C(=O)O registered its MIC at 4

The compound identified as CC[C@H]1C[C@@]23OC(=O)C(=C2O)C(=O)[C@]2(CC)[C@@H](C=C[C@@H]4[C@@H](O[C@H]5C[C@@H](O)[C@H](NC(=O)c6[nH]cc(Br)c6Br)[C@@H](C)O5)[C@@H](C)CC[C@@H]42)CCCC/C=C/[C@@]3(C)C=C1C(=O)O registered its MIC at 1

The compound identified as CN[C@H](CC(C)C)C(=O)N[C@H]1C(=O)N[C@@H](CC(N)=O)C(=O)N[C@H]2C(=O)N[C@H]3C(=O)N[C@H](C(=O)N[C@H](C(=O)O)c4cc(O)cc(O)c4-c4cc3ccc4O)[C@H](O)c3ccc(c(Cl)c3)Oc3cc2cc(c3O[C@@H]2O[C@H](CO)[C@@H](O)[C@H](O)[C@H]2O[C@H]2C[C@](C)(N)[C@H](O)[C@H](C)O2)Oc2ccc(cc2Cl)[C@H]1O registered its MIC at 1

====

- System: Staphylococcus aureus
- test protocol: Antibacterial activity against methicillin-sensitive Staphylococcus aureus ATCC 29213 by broth microdilution method
- Assay type: functional
Could you please report measured MIC for the items listed next?
Report only the number, with the unit µg/mL understood.

The compound identified as CC[C@H]1C[C@@]23OC(=O)C(=C2O)C(=O)[C@]2(CC)[C@@H](C=C[C@@H]4[C@@H](O[C@H]5C[C@@H](O)[C@H](NC(=O)c6[nH]c(Cl)cc6Cl)[C@@H](C)O5)[C@@H](C)CC[C@@H]42)CCCC/C=C/[C@@]3(C)C=C1C(=O)O registered its MIC at 0.25

The compound identified as CC[C@H]1C[C@@]23OC(=O)C(=C2O)C(=O)[C@]2(CC)[C@@H](C=C[C@@H]4[C@@H](O[C@H]5C[C@@H](O)[C@H](NC(=O)c6[nH]c(Cl)c(Cl)c6Cl)[C@@H](C)O5)[C@@H](C)CC[C@@H]42)CCCC/C=C/[C@@]3(C)C=C1C(=O)O registered its MIC at 2

The compound identified as CC[C@H]1C[C@@]23OC(=O)C(=C2O)C(=O)[C@]2(CC)[C@@H](C=C[C@@H]4[C@@H](O[C@H]5C[C@@H](O)[C@H](NC(=O)c6[nH]ccc6Br)[C@@H](C)O5)[C@@H](C)CC[C@@H]42)CCCC/C=C/[C@@]3(C)C=C1C(=O)O registered its MIC at 2
